Reference source: paper PMC9045296

test system: cdc50Δ mutant strain; type: cell-based, Cryptococcus neoformans; conditions: Table S1, drug alone
Residues, ends and D or L forms follow the SMILES beside them. *: point of attachment. Palmitoyl = CCCCCCCCCCCCCCCC(=O)*; Myristoyl = CCCCCCCCCCCCCC(=O)*
Catalogue of compounds with associated MIC ΔCDC50
Could you give me the number in µg/mL? Just the number is fine.

{"COMPOUND": "CCCCCCCCCCCCCC(=O)N[C@@H](CO)C(=O)N[C@@H](CCC(=O)O)C(=O)N[C@@H](CO)C(=O)NCC(=O)N[C@H](C(=O)N[C@@H](C)C(=O)N[C@@H](Cc1c[nH]c2ccccc12)C(=O)NCC(=O)NCC(=O)N[C@H](C(=O)N[C@@H](CCCCN)C(=O)N[C@@H](CCCCN)C(=O)N[C@@H](CC(N)=O)C(=O)N[C@@H](Cc1ccc(O)cc1)C(=O)N[C@@H](C)C(=O)O)[C@@H](C)CC)[C@@H](C)CC [AS15-Ma] (Myristoyl-SESGIAWGGIKKNYA-OH)", "ASSAYED_SYSTEM": "cdc50Δ mutant strain", "MIC ΔCDC50 [µg/mL]": 8}
{"COMPOUND": "CC[C@H](C)C[C@H](C)CCCCCCCCC(=O)N[C@H]1C[C@@H](O)[C@@H](NCCN)NC(=O)[C@@H]2[C@@H](O)CCN2C(=O)[C@H]([C@H](O)CCN)NC(=O)[C@H]([C@H](O)[C@@H](O)c2ccc(O)cc2)NC(=O)[C@@H]2C[C@@H](O)CN2C(=O)[C@H]([C@@H](C)O)NC1=O [caspofungin, reference compound]", "ASSAYED_SYSTEM": "cdc50Δ mutant strain", "MIC ΔCDC50 [µg/mL]": 4}

Proceed to the following item.
## Input Using the record for CCCCCCCCCCCCCCCC(=O)N[C@@H](Cc1c[nH]c2ccccc12)C(=O)NCC(=O)NCC(=O)N[C@H](C(=O)N[C@@H](CCCCN)C(=O)N[C@@H](CCCCN)C(=O)N[C@@H](CC(N)=O)C(=O)N[C@@H](Cc1ccc(O)cc1)C(=O)N[C@@H](C)C(=O)O)[C@@H](C)CC [AW9-Pa] (Palmitoyl-WGGIKKNYA-OH) , report its MIC ΔCDC50.
## Output 8
